# Test system: SK-MEL-28
# ASSAY_NAME: Growth inhibition of human SK-MEL-28 cells after 48 hrs by sulforhodamine B assay
# Assay type: functional
# EXPERIMENTAL_SETUP: SK-MEL-28, 48 h
Below, each of the compounds is paired with its reported GI50 value.
Could you give me the number in µM? Just the number is fine.

GET /values?readout=GI50&item= COc1ccc2[nH]c(-c3ccccc3)c(C=C(C#N)C#N)c2c1
4.4

* * *

# Test system: A549
# ASSAY_NAME: Growth inhibition of human A549 cells after 48 hrs by sulforhodamine B assay
# Type: functional
# EXPERIMENTAL_SETUP: A549, 48 h
READOUT: GI50

# count of solved cases: 4
1) O=C(/C(=C\c1c(-c2ccccc2)[nH]c2ccccc12)S(=O)(=O)c1ccccc1)c1ccccc1 | 35 µM
2) COC(=O)/C(=C\c1c(-c2ccccc2)[nH]c2ccccc12)S(C)(=O)=O | 5.3 µM
3) COC(=O)/C(=C\c1c(C)[nH]c2ccccc12)S(=O)(=O)c1ccccc1 | 4.9 µM
4) COc1ccc(-c2[nH]c3ccccc3c2C=C(C#N)C#N)cc1 | 0.7 µM

# ---- query molecule ----
GET /values?readout=GI50&item= N#C/C(=C\c1c(-c2ccccc2)[nH]c2ccccc12)C(=O)c1ccccc1
7.6 µM

* * *

# Test system: TK-10
# ASSAY_NAME: Growth inhibition of human TK10 cells after 48 hrs by sulforhodamine B assay
# Type: functional
# EXPERIMENTAL_SETUP: TK-10, 48 h
READOUT: GI50 (µM)
Could you give me the number in µM? Just the number is fine.

# count of solved cases: 2
1) COc1ccc(-c2[nH]c3ccc(OC)cc3c2/C=C(\C#N)S(=O)(=O)c2ccccc2)cc1 | 5
2) COC(=O)/C(=C\c1c(-c2ccccc2)[nH]c2ccccc12)S(C)(=O)=O | 7.7

# ---- query molecule ----
GET /values?readout=GI50&item= COc1ccc2[nH]c(-c3ccccc3)c(/C=C(\C#N)S(=O)(=O)c3ccccc3)c2c1
17.5

* * *

# Tested on: A549
# ASSAY_NAME: Growth inhibition of human A549 cells after 48 hrs by sulforhodamine B assay
# Assay type: functional
# EXPERIMENTAL_SETUP: A549, 48 h
READOUT: GI50
Answer with the value and then the unit.

# count of solved cases: 4
1. COc1ccc(-c2[nH]c3ccccc3c2/C=C(\C#N)S(=O)(=O)c2ccccc2)cc1 | 0.803 µM
2. COc1ccc(-c2[nH]c3ccc(OC)cc3c2C=C(C#N)C#N)cc1 | 3.8 µM
3. N#C/C(=C\c1c(-c2ccccc2)[nH]c2ccccc12)S(=O)(=O)c1ccccc1 | 3.7 µM
4. CCOC(=O)C(=Cc1c(-c2ccccc2)[nH]c2ccccc12)C(=O)OCC | 6.4 µM

# ---- query molecule ----
GET /values?readout=GI50&item= CC(=O)/C(=C\c1c(-c2ccccc2)[nH]c2ccccc12)S(=O)(=O)c1ccccc1
7.2 µM

* * *

# Tested on: MRC5
# ASSAY_NAME: Cytotoxicity against human MRC5 cells after 96 hrs by MTT assay
# Assay type: cell-based
# EXPERIMENTAL_SETUP: MRC5, 96 h
READOUT: EC50 (µM)
Could you give me the number in µM? Just the number is fine.

# count of solved cases: 2
1) COc1ccc2[nH]c(-c3ccccc3)c(/C=C(\C#N)S(=O)(=O)c3ccccc3)c2c1 | 14
2) CCOC(=O)/C(=C\c1c(-c2ccccc2)[nH]c2ccccc12)C(C)=O | 31

# ---- query compound ----
GET /values?readout=EC50&item= N#C/C(=C\c1c(-c2ccccc2)[nH]c2ccccc12)C(=O)c1ccc(Cl)cc1
14

* * *

# Tested on: SR
# ASSAY_NAME: Growth inhibition of human SR cells after 48 hrs by sulforhodamine B assay
# Format: functional
READOUT: GI50 (nM)
Could you give me the number in nM? Just the number is fine.

1) COC(=O)/C(=C\c1c(C)[nH]c2ccccc12)S(=O)(=O)c1ccccc1 | 1100
2) COc1ccc2[nH]c(-c3ccccc3)c(/C=C(\C#N)S(=O)(=O)c3ccccc3)c2c1 | 2200
3) COc1ccc(-c2[nH]c3ccc(OC)cc3c2C=C(C#N)C#N)cc1 | 152

Under SR: GI50 value of COc1ccc(-c2[nH]c3ccccc3c2/C=C(\C#N)S(=O)(=O)c2ccccc2)cc1 ?
350

Next compound up: CCOC(=O)C(=Cc1c(-c2ccccc2)[nH]c2ccccc12)C(=O)OCC
2100

Next compound up: COc1ccc2[nH]c(-c3ccccc3)c(C=C(C#N)C#N)c2c1
865

Next compound up: N#C/C(=C\c1c(-c2ccccc2)[nH]c2ccccc12)S(=O)(=O)c1ccccc1
17300

Next compound up: COC(=O)/C(=C\c1c(-c2ccccc2)[nH]c2ccccc12)S(C)(=O)=O
8100

Next compound up: COc1ccc(-c2[nH]c3ccc(OC)cc3c2/C=C(\C#N)S(=O)(=O)c2ccccc2)cc1
305

Next compound up: O=C(/C(=C\c1c(-c2ccccc2)[nH]c2ccccc12)S(=O)(=O)c1ccccc1)c1ccccc1
9900

* * *

# Test system: NCI-H226
# ASSAY_NAME: Growth inhibition of human NCI-H226 cells after 48 hrs by sulforhodamine B assay
# Assay type: functional
# EXPERIMENTAL_SETUP: NCI-H226, 48 h
Below, each of the compounds is paired with its reported GI50 value.
Could you give me the number in µM? Just the number is fine.

# count of solved cases: 3
1. COc1ccc(-c2[nH]c3ccccc3c2/C=C(\C#N)S(=O)(=O)c2ccccc2)cc1 | 2.8
2. CC(=O)/C(=C\c1c(-c2ccccc2)[nH]c2ccccc12)S(=O)(=O)c1ccccc1 | 1.9
3. COc1ccc(-c2[nH]c3ccc(OC)cc3c2/C=C(\C#N)S(=O)(=O)c2ccccc2)cc1 | 3.7

# ---- query compound ----
Under NCI-H226: GI50 value of COC(=O)/C(=C\c1c(-c2ccccc2)[nH]c2ccccc12)S(C)(=O)=O ?
5

* * *

# Tested on: OVCAR-5
# ASSAY_NAME: Growth inhibition of human OVCAR5 cells after 48 hrs by sulforhodamine B assay
# Assay type: functional
# EXPERIMENTAL_SETUP: OVCAR-5, 48 h
Below, each of the compounds is paired with its reported log10(GI50) value.
Field: value | Transform: log10 | Quantity: GI50 | Unit: µM

1. CC(=O)/C(=C\c1c(-c2ccccc2)[nH]c2ccccc12)S(=O)(=O)c1ccccc1 | 0.30
2. COc1ccc2[nH]c(-c3ccccc3)c(/C=C(\C#N)S(=O)(=O)c3ccccc3)c2c1 | 1.57
3. CCOC(=O)C(=Cc1c(-c2ccccc2)[nH]c2ccccc12)C(=O)OCC | 1.27
4. CC(=O)/C(=C\c1c(-c2ccccc2)[nH]c2ccccc12)S(C)(=O)=O | 1.21
5. COc1ccc(-c2[nH]c3ccc(OC)cc3c2/C=C(\C#N)S(=O)(=O)c2ccccc2)cc1 | 0.66

Under OVCAR-5: log10(GI50) value of COC(=O)/C(=C\c1c(C)[nH]c2ccccc12)S(=O)(=O)c1ccccc1 ?
1.24

Next compound up: COc1ccc(-c2[nH]c3ccccc3c2C=C(C#N)C#N)cc1
0.26

* * *

Below, each of the compounds is paired with its reported GI50 value.
# Tested on: UACC-257
# ASSAY_NAME: Growth inhibition of human UACC257 cells after 48 hrs by sulforhodamine B assay
# Format: functional
# EXPERIMENTAL_SETUP: UACC-257, 48 h
Could you give me the number in µM? Just the number is fine.

# count of solved cases: 2
1) CCOC(=O)C(=Cc1c(-c2ccccc2)[nH]c2ccccc12)C(=O)OCC | 7.5
2) COc1ccc(-c2[nH]c3ccc(OC)cc3c2/C=C(\C#N)S(=O)(=O)c2ccccc2)cc1 | 46.1

Under UACC-257: GI50 value of N#C/C(=C\c1c(-c2ccccc2)[nH]c2ccccc12)C(=O)c1ccccc1 ?
10.9

* * *

Below, each of the molecules is paired with its reported GI50 value.
# Tested on: 786-0
# ASSAY_NAME: Growth inhibition of human 786-0 cells after 48 hrs by sulforhodamine B assay
# Type: functional
# EXPERIMENTAL_SETUP: 786-0, 48 h
Could you give me the number in µM? Just the number is fine.

# count of solved cases: 3
1. COc1ccc(-c2[nH]c3ccccc3c2C=C(C#N)C#N)cc1 | 0.72
2. N#CC(C#N)=Cc1c(-c2ccccc2)[nH]c2ccccc12 | 8.6
3. COC(=O)/C(=C\c1c(-c2ccccc2)[nH]c2ccccc12)S(C)(=O)=O | 7.5

# ---- query molecule ----
GET /values?readout=GI50&item= N#C/C(=C\c1c(-c2ccccc2)[nH]c2ccccc12)S(=O)(=O)c1ccccc1
9.2
